molecular target: human GPR119 (Homo sapiens (Human)); experiment: AlphaScreen cAMP assay in Min-6/hGPR119 cells (GPR119 activation, intracellular cAMP); settings: MIN6 cells stably transfected with human GPR119; 45 minutes' incubation at RT; AlphaScreen cAMP Assay Kit
pEC50: −log10 of the molar value.
Item-by-item account of pEC50
MEASURED QUANTITY: pEC50

>>> val("CCC[C@H]1C(=O)NN=C(c2ccc3nc(C4CC4)oc3c2)[C@@H]1C (stereo in doubt)")
6.52
>>> val("O=C1NN=C(c2ccc3nc(-c4ccccc4)oc3c2)C2CC12 (centres unmarked)")
6.61
>>> val("CCC1CC(=O)NN=C1c1ccc2nc(-c3ccc(OCCN4CCN(C(=O)OC(C)(C)C)CC4)cc3)oc2c1 (centres unmarked)")
6.93
>>> val("CC[C@H]1C(c2ccc3nc(-c4ccccc4)oc3c2)=NNC(=O)[C@@H]1C")
7.10
>>> val("CCC1CC(=O)NN=C1c1ccc2nc(-c3ccc(OCC4CCN(C(=O)OC(C)(C)C)CC4)cc3)oc2c1 (centres unmarked)")
7.29
>>> val("CCC[C@@H]1C(=O)NN=C(c2ccc3nc(-c4ccccc4)oc3c2)[C@H]1C (relative stereo)")
7.25
>>> val("CCC[C@@H]1C(=O)NN=C(c2ccc3nc(-c4ccc(OC)cc4)oc3c2)[C@H]1C (relative stereo)")
7.04
>>> val("CC1CC(c2ccc3nc(-c4cccs4)oc3c2)=NNC1=O (centres unmarked)")
5.81

---

target: human GPR119 (Homo sapiens (Human), UniProt Q8TDV5); experiment: AlphaScreen cAMP assay in Min-6/hGPR119 cells (GPR119 activation, intracellular cAMP); conditions: MIN6 cells stably transfected with human GPR119; 45 minutes' incubation at RT; AlphaScreen cAMP Assay Kit
Sequence (Q8TDV5 whole entry): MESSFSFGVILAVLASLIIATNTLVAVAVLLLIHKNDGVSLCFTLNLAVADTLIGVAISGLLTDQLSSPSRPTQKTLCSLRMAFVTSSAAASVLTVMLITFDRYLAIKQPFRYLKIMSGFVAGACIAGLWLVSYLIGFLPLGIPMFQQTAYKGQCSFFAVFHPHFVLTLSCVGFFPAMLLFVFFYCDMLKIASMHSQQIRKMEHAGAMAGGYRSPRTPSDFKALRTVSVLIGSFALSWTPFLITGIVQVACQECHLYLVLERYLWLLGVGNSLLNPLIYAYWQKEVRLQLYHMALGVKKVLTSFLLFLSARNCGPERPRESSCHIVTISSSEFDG
# if measured EC50 < 100 nM: MET  # else: NOT MET

>>> label("CCC1CC(=O)NN=C1c1ccc2nc(-c3ccccc3)oc2c1 (stereo not drawn)")
"NOT MET"
>>> label("CCC1CC(=O)NN=C1c1ccc2nc(-c3ccc(OC4CCCCCN4C)cc3)oc2c1 (stereo not drawn)")
"NOT MET"
>>> label("CCC1CC(=O)NN=C1c1ccc2nc(-c3ccc(OCC4CCCCC4)cc3)oc2c1 (stereo not drawn)")
"NOT MET"
>>> label("CCC1CC(=O)NN=C1c1ccc2nc(-c3ccc(OCC(=O)OC(C)(C)C)cc3)oc2c1 (stereo not drawn)")
"NOT MET"
>>> label("CCC1CC(=O)NN=C1c1ccc2nc(-c3ccc(O[C@H]4CCC[C@@H]4N4CCCCC4)cc3)oc2c1 (relative stereo)")
"NOT MET"
>>> label("CCCCC1CC(c2ccc3nc(-c4cccs4)oc3c2)=NNC1=O (stereo not drawn)")
"NOT MET"
>>> label("CC[C@@H]1CC(=O)NN=C1c1ccc2nc(-c3ccccc3)oc2c1")
"MET"
>>> label("CC[C@@H]1CC(=O)NN=C1c1ccc2nc(-c3ccc(OC4CCOCC4)cc3)oc2c1")
"MET"
>>> label("O=C1CCC(c2ccc3nc(N4CCSCC4)oc3c2)=NN1")
"NOT MET"

---

biological target: human GPR119 (Homo sapiens (Human), UniProt Q8TDV5); assay: AlphaScreen cAMP assay in Min-6/hGPR119 cells (GPR119 activation, intracellular cAMP); conditions: MIN6 cells stably transfected with human GPR119; 45 minutes' incubation at RT; AlphaScreen cAMP Assay Kit
Binary call on EC50 with cut-off 600 nM: strictly below means label 1, and equality or higher means label 0.

>>> label("C=CCOc1ccc(-c2nc3ccc(C4=NNC(=O)CC4CC)cc3o2)cc1 (centres unmarked)")
"label 1"
>>> label("O=C1NN=C(c2ccc3nc(-c4cccc(F)c4)oc3c2)C2CC12 (centres unmarked)")
"label 1"
>>> label("CCC1CC(=O)NN=C1c1ccc2nc(-c3ccc(OCc4cncnc4)cc3)oc2c1 (centres unmarked)")
"label 0"
>>> label("CCC1CC(=O)NN=C1c1ccc2nc(-c3cccc(OCCN4CCN(C(C)CC)CC4)c3)oc2c1 (centres unmarked)")
"label 0"
>>> label("O=C1NN=C(c2ccc3nc(-c4ccccc4)oc3c2)C2CCC12 (centres unmarked)")
"label 1"
>>> label("COC(=O)c1cccc(-c2nc3ccc(-c4n[nH]c(=O)cc4C)cc3o2)c1")
"label 0"
>>> label("CCC1CC(=O)NN=C1c1ccc2nc(-c3cccc(OCCN4CCCCCC4)c3)oc2c1 (centres unmarked)")
"label 1"
>>> label("CCC1CC(=O)NN=C1c1ccc2nc(-c3cccc(OCCCN4CCCCC4)c3)oc2c1 (centres unmarked)")
"label 0"
>>> label("CCC1CC(=O)NN=C1c1ccc2nc(-c3cccc(OCCN4CCN(C(=O)OC(C)(C)C)CC4)c3)oc2c1 (centres unmarked)")
"label 0"
>>> label("CCC1CC(=O)NN=C1c1ccc2nc(-c3cccc(O)c3)oc2c1 (centres unmarked)")
"label 1"
>>> label("CCC1CC(=O)NN=C1c1ccc2nc(-c3ccc(OCCN4CCN(C(C)=O)CC4)cc3)oc2c1 (centres unmarked)")
"label 0"
>>> label("CCC1CC(=O)NN=C1c1ccc2nc(-c3ccc(OCC4CCCCN4C)cc3)oc2c1 (centres unmarked)")
"label 0"
>>> label("CCC[C@H]1C(=O)NN=C(c2ccc3nc(-c4ccco4)oc3c2)[C@@H]1C")
"label 1"
>>> label("CCC1CC(=O)NN=C1c1ccc2nc(-c3cccc(OCCN(CC(C)C)CC(C)C)c3)oc2c1 (centres unmarked)")
"label 1"
>>> label("CCC1CC(=O)NN=C1c1ccc2nc(-c3ccc(OCCN4CCN(C(C)C)CC4)cc3)oc2c1 (centres unmarked)")
"label 0"
>>> label("COc1ccccc1-c1nc2ccc(C3=NNC(=O)CC3C)cc2o1 (centres unmarked)")
"label 0"
>>> label("Cc1c(C2=NNC(=O)C3CC23)ccc2nc(-c3ccccc3)oc12 (centres unmarked)")
"label 0"
